# Measured target: T1, CRBN, Q96SW2;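 note: pooled lentiviral library of zinc finger degron-EGFP fusions in mCherry-positive Jurkat cells, FACS-sorted after compound exposure, with degron abundance counted by next-generation sequencing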
# T1 chain: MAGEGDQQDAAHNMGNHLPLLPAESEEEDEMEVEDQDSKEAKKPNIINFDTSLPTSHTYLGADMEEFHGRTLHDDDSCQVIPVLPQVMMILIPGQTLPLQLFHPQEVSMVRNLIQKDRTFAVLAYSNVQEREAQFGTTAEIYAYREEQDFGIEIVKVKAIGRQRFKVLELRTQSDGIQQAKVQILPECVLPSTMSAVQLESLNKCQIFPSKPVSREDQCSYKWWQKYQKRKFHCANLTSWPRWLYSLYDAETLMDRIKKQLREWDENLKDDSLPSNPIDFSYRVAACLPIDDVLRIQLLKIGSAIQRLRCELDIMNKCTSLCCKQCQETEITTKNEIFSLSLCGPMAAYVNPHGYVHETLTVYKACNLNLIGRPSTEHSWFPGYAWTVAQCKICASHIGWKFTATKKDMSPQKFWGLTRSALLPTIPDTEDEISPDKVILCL
# Assay remarks: log2 fold change of degron read counts, EGFP-low vs EGFP+ sorted cells (limma voom), compound-induced degradation; higher = more compound-induced degradation of the degron-EGFP fusion; degrons are variants of IKZF1/3 zinc finger 2; compound dose not given here
# Condition notes: Jurkat; 18 h; compound: compound 33 (diphenyl IMiD analogue)
In all, about 8,300 sequences were measured (“log2 fold change of degron read counts, EGFP-low vs EGFP+ sorted cells (limma voom), compound-induced degradation”: median about -1.1, highest 2% from about 3.2 on). The sample as a whole holds a higher share of the highest values than the screen did.
Reported endpoint: log2 fold change of degron read counts
Simply state the number, no unit and no words.

Suppose we examine the sequence FCCEICGASFTQKGNLLRHIKL [46F_47C_49E_50I_52G_53A_54S_55F_67L_, Q9UKT9] ; what log2 fold change of degron read counts value has been reported?
2.35

Try FYCEICGASFTQKGNLLRHIKL [46F_47Y_49E_50I_52G_53A_54S_55F_67L_, Q9UKT9] next.
2.91

Same thing, different sequence: FFCPICGAGFTQKGNLLRHIKL [46F_47F_49P_50I_52G_53A_54G_55F_67L_, Q9UKT9]
1.63

Another sequence to look at: FQCPVCGAMFTQKGNLLRHIKL [46F_47Q_49P_50V_52G_53A_54M_55F_67L_, Q9UKT9]
2.34

Next sequence up: FSCPVCGAMFTQKGNLLRHIKL [46F_47S_49P_50V_52G_53A_54M_55F_67L_, Q9UKT9]
1.55

Let us now turn to FLCPVCGANFTQKGNLLRHIKL [46F_47L_49P_50V_52G_53A_54N_55F_67L_, Q9UKT9]
1.67

What do we get for FACPQCGAAFTQKGNLLRHIKL [46F_47A_49P_50Q_52G_53A_54A_55F_67L_, Q9UKT9] ?
0.0272

Query FFCSVCGHNFTQKGNLLRHIKL [46F_47F_49S_50V_52G_53H_54N_55F_67L_, Q9UKT9] next
-2.79

Also check FQCPVCGANFTQKGNLLRHIKL [46F_47Q_49P_50V_52G_53A_54N_55F_67L_, Q9UKT9]
1.9

Record: FVCPVCGAMFTQKGNLLRHIKL [46F_47V_49P_50V_52G_53A_54M_55F_67L_, Q9UKT9]
1.78

Next sequence: FVCPVCGANFTQKGNLLRHIKL [46F_47V_49P_50V_52G_53A_54N_55F_67L_, Q9UKT9]
1.69

Also FNCEICGALFTQKGNLLRHIKL [46F_47N_49E_50I_52G_53A_54L_55F_67L_, Q9UKT9] , if possible.
-0.743

Field entry: FECNICGANFTQKGNLLRHIKL [46F_47E_49N_50I_52G_53A_54N_55F_67L_, Q9UKT9]
1.75

Request: FRCEICGRWFTQKGNLLRHIKL [46F_47R_49E_50I_52G_53R_54W_55F_67L_, Q9UKT9]
-1.89

// query: FACDVCGACFTQKGNLLRHIKL [46F_47A_49D_50V_52G_53A_54C_55F_67L_, Q9UKT9]
-0.331

And then FACPVCGATFTQKGNLLRHIKL [46F_47A_49P_50V_52G_53A_54T_55F_67L_, Q9UKT9] , what is it?
1.17

Item: FRCNQCGHRFTQKGNLLRHIKL [46F_47R_49N_50Q_52G_53H_54R_55F_67L_, Q9UKT9]
-2.63

FECPVCGANFTQKGNLLRHIKL [46F_47E_49P_50V_52G_53A_54N_55F_67L_, Q9UKT9] ?
2.7

Same question for FSCEICGHYFTQKGNLLRHIKL [46F_47S_49E_50I_52G_53H_54Y_55F_67L_, Q9UKT9] please.
-2.44

Do the same for FMCPVCGANFTQKGNLLRHIKL [46F_47M_49P_50V_52G_53A_54N_55F_67L_, Q9UKT9] please
2.92

Moving on to the next sequence: LFCEICGFMCTQKGNLLRHIKL [46L_47F_49E_50I_52G_53F_54M_55C_67L_, Q9UKT9]
1.56

Entry FCCNVCGAWFTQKGNLLRHIKL [46F_47C_49N_50V_52G_53A_54W_55F_67L_, Q9UKT9] please
-1.27

Next sequence up: FGCPVCGAMFTQKGNLLRHIKL [46F_47G_49P_50V_52G_53A_54M_55F_67L_, Q9UKT9]
2.22

Now consider FDCEICGASFTQKGNLLRHIKL [46F_47D_49E_50I_52G_53A_54S_55F_67L_, Q9UKT9] and answer again.
0.437

Also, FWCEQCGANFTQKGNLLRHIKL [46F_47W_49E_50Q_52G_53A_54N_55F_67L_, Q9UKT9] please.
-0.0431

Then this sequence: FTCPQCGAQFTQKGNLLRHIKL [46F_47T_49P_50Q_52G_53A_54Q_55F_67L_, Q9UKT9]
1.83

Param item: FNCPVCGAMFTQKGNLLRHIKL [46F_47N_49P_50V_52G_53A_54M_55F_67L_, Q9UKT9]
0.173

Moving on to the next sequence: FWCPVCGANFTQKGNLLRHIKL [46F_47W_49P_50V_52G_53A_54N_55F_67L_, Q9UKT9]
2.12

Query FRCEICGRGFTQKGNLLRHIKL [46F_47R_49E_50I_52G_53R_54G_55F_67L_, Q9UKT9] next
-0.0801
